Test system: HCC-2998
Assay: NCI 60 human tumor cell line screen (SRB)
Type: cell-based
Details: HCC-2998 (Colon Cancer); 48 h
Log10GI50 for assorted compounds
measured_attribute: Log10GI50

In [3]: df
Out[3]:
                                   compound  numeric_value
0  CC(C)C[C@H](NC(=O)[C@H](Cc1ccccc1)NC(=O)[C@H](COC(F)F)NC(=O)CN1CCOCC1)C(=O)[C@@]1(C)CO1          −7.74
1  C[C@]1(C(=O)[C@H](Cc2ccccc2)NC(=O)[C@H](Cc2ccccc2)NC(=O)[C@H](COC(F)F)NC(=O)CN2CCOCC2)CO1          −6.80
2  Cc1ncc(C(=O)N[C@@H](COC(F)F)C(=O)N[C@@H](COC(F)F)C(=O)N[C@@H](Cc2ccccc2)C(=O)[C@@]2(C)CO2)s1          −6.74
3  C[C@]1(C(=O)[C@H](Cc2ccccc2)NC(=O)[C@H](COC(F)F)NC(=O)[C@H](COC(F)F)NC(=O)CN2CCOCC2)CO1          −7.74

* * *

Test system: SNB-19
Test: NCI 60 human tumor cell line screen (SRB)
Assay type: cell-based
Conditions: SNB-19 (CNS Cancer); 48 h
Log10LC50 for assorted molecules
measured_attribute: Log10LC50

In [3]: df
Out[3]:
                                   compound  result
0  Cc1ncc(C(=O)N[C@@H](COC(F)F)C(=O)N[C@@H](COC(F)F)C(=O)N[C@@H](Cc2ccccc2)C(=O)[C@@]2(C)CO2)s1  >−4.00
1  C[C@]1(C(=O)[C@H](Cc2ccccc2)NC(=O)[C@H](Cc2ccccc2)NC(=O)[C@H](COC(F)F)NC(=O)CN2CCOCC2)CO1  >−4.00
2  CC(C)C[C@H](NC(=O)[C@H](Cc1ccccc1)NC(=O)[C@H](COC(F)F)NC(=O)CN1CCOCC1)C(=O)[C@@]1(C)CO1  >−4.00
3  C[C@]1(C(=O)[C@H](Cc2ccccc2)NC(=O)[C@H](COC(F)F)NC(=O)[C@H](COC(F)F)NC(=O)CN2CCOCC2)CO1  >−4.00

* * *

System: NCI-H322M
Test: NCI 60 human tumor cell line screen (SRB)
Type: cell-based
Conditions: NCI-H322M (Non-Small Cell Lung Cancer); 48 h
measured_attribute: Log10LC50

                                   compound  lt_gt_eq  numeric_value
0  CC(C)C[C@H](NC(=O)[C@H](Cc1ccccc1)NC(=O)[C@H](COC(F)F)NC(=O)CN1CCOCC1)C(=O)[C@@]1(C)CO1 [Example 25]         >          −4.00
1  Cc1ncc(C(=O)N[C@@H](COC(F)F)C(=O)N[C@@H](COC(F)F)C(=O)N[C@@H](Cc2ccccc2)C(=O)[C@@]2(C)CO2)s1 [Example 1]         =          −4.23
2  C[C@]1(C(=O)[C@H](Cc2ccccc2)NC(=O)[C@H](COC(F)F)NC(=O)[C@H](COC(F)F)NC(=O)CN2CCOCC2)CO1 [Example 26]         >          −4.00
3  C[C@]1(C(=O)[C@H](Cc2ccccc2)NC(=O)[C@H](Cc2ccccc2)NC(=O)[C@H](COC(F)F)NC(=O)CN2CCOCC2)CO1 [Example 29]         =          −4.18
